# system: T1, EsCas13d, nuclease-dead (Eubacterium siraeum, UniProt B0MS50, R295A;H300A;R849A;H854A)
# T1 sequence: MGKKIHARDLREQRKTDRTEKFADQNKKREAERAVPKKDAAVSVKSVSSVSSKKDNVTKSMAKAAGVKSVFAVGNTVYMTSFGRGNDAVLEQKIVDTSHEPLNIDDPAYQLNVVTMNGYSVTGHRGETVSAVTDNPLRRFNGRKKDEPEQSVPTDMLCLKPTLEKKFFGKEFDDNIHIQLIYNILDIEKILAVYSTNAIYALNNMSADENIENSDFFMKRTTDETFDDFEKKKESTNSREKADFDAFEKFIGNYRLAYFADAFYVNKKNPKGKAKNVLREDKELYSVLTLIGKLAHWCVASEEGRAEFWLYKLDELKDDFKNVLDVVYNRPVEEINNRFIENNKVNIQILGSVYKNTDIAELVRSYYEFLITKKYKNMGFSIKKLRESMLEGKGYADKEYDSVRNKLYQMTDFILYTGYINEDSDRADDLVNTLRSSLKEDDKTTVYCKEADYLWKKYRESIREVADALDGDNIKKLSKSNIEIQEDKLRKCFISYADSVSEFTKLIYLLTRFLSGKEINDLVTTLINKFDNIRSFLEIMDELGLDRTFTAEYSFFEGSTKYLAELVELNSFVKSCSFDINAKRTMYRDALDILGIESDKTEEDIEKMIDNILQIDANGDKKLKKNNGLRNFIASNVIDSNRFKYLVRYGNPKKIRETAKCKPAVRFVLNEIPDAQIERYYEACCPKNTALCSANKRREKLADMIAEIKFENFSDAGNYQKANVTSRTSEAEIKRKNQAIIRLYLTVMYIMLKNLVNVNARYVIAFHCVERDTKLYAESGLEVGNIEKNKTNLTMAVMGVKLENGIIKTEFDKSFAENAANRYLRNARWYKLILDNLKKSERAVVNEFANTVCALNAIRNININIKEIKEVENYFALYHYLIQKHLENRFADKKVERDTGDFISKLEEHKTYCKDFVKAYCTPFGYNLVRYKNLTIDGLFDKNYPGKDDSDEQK
# assay.text: crRNA (strand 1, pre-loaded); Mg2+; 40 mM Tris-HCl pH 7.5, 150 mM NaCl, 6 mM MgCl2, 1 mM DTT, 0.1% Tween-20, 0.2 mg/ml BSA; 25 C; 10 min per concentration, then washed
# stated.conditions: tags: His6-TwinStrep-SUMO cleaved; N-terminal SNAP kept (SNAP-Surface 488); label: 3' end held by stalled T7 RNA polymerase
measurement.label: pKd
On this scale, pKd is minus log10 of a concentration expressed in M (mol/L).

Request: Return reported pKd; argument: target 1 U19G,A20C (mixed) RNA 1: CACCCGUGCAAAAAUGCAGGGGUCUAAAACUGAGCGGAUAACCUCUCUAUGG RNA 2: GGGAAUGGAUCCACAUCUACGAAUUCGUACCCGAGAGAGGUUAUCCGCUCACCGAGAUCGGAAGAGCACACGU
Result: 7.10

Request: Return reported pKd; argument: target 1 insA 3' of 17,insC 3' of 5 (mixed) RNA 1: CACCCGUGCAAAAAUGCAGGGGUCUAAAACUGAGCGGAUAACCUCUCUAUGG RNA 2: GGGAAUGGAUCCACAUCUACGAAUUCGUACCAUAGAAGAGGUUAUCCGCCUCACCGAGAUCGGAAGAGCACACGU
Result: 7.49

Request: Return reported pKd; argument: target 2 MT 5'PFS GGG 3'PFS UAC (mixed) RNA 1: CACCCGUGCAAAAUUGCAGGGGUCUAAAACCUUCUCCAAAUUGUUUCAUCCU RNA 2: GGGAAUGGAUCCACAUCUACGAAUUCGGGAGGAUGAAACAAUUUGGAGAAGUACAGAUCGGAAGAGCACACGU
Result: 8.02

Request: Return reported pKd; argument: target 1 U8G,U19A (mixed) RNA 1: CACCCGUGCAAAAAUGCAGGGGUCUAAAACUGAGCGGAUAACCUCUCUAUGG RNA 2: GGGAAUGGAUCCACAUCUACGAAUUCGUACCAAAGAGAGGUUAGCCGCUCACCGAGAUCGGAAGAGCACACGU
Result: 7.21
